System: Plasmodium falciparum
METHOD: GSK_TCMDC: Inhibition of Plasmodium falciparum Dd2 in whole red blood cells, using parasite LDH activity as an index of growth. Test compounds present at 2uM
Assay type: functional
RECORDED ENDPOINT: Inhibition

Problem: State, for Plasmodium falciparum, measured Inhibition of the molecule listed here: CCc1nc2nc(C)cc(Nc3ccc(F)c(Cl)c3)n2n1
Result: 77%

Problem: State, for Plasmodium falciparum, measured Inhibition of the molecule listed here: Clc1ccc(-c2cc(-c3csc(NCCN4CCOCC4)n3)on2)c(Cl)c1
Result: 86%

Problem: State, for Plasmodium falciparum, measured Inhibition of the molecule listed here: CCCCCN1CCCC1CNS(=O)(=O)c1cccc(C(=O)Nc2cccc(C#N)c2)c1.O=C(O)C(F)(F)F (stereo not given)
Result: 7%

Problem: State, for Plasmodium falciparum, measured Inhibition of the molecule listed here: CCCCc1ccccc1NS(=O)(=O)c1ccc(OC)c(N2CCNCC2)c1.Cl
Result: 2%

Problem: State, for Plasmodium falciparum, measured Inhibition of the molecule listed here: FC(F)(F)c1ccc2[nH]c(-c3cccc(-c4cccc(CNCCN5CCNCC5)c4)c3)nc2c1.O=C(O)C(F)(F)F
Result: 18%

###

Please provide measured Inhibition for the entries that follow.
Test system: HepG2
METHOD: GSK_TCMDC: Percent inhibition of human HepG2 cell line. Test compounds present at 10uM.
Format: functional
Give the value in % but do not write % after it.

Problem: Supply reported Inhibition belonging to this molecule: FC(F)(F)c1ccc2[nH]c(-c3ccc(-c4cccc(CNCc5cnn(-c6ccccc6)n5)c4)cc3)nc2c1.O=C(O)C(F)(F)F
Result: 19

Problem: Supply reported Inhibition belonging to this molecule: Cc1cccc2nc(-c3cccc(-c4cccc(CNCc5ccccc5)c4)c3)[nH]c12.O=C(O)C(F)(F)F
Result: 3

Problem: Supply reported Inhibition belonging to this molecule: CC(=O)Oc1c(C2CCN(CCCCNC(=O)c3ccc(NC(=O)c4ccc(Cl)cc4)cc3)CC2)ccc2ccccc12
Result: 24

Problem: Supply reported Inhibition belonging to this molecule: Cc1cc(C2CCN(CCCCNC(=O)c3ccc(NC(=O)c4ccc(Cl)cc4)cc3)CC2)c(C)cc1OCc1ccncc1.Cl
Result: 33

Problem: Supply reported Inhibition belonging to this molecule: CN1C(C)(C)CC(NC(=O)c2ccc(-c3nc4cc(Cl)c(Cl)cc4[nH]3)cc2)CC1(C)C
Result: 8

Problem: Supply reported Inhibition belonging to this molecule: CC(=O)Nc1ccc(C(=O)Nc2ccc(-c3cccc(-c4nc5cccc(C)c5[nH]4)c3)cc2)cn1
Result: 36

Problem: Supply reported Inhibition belonging to this molecule: CCN(CCCN1CCCCC1)c1cc(C)nc(Nc2ccc(Cl)cc2C)n1.O=C(O)C(F)(F)F
Result: 44

Problem: Supply reported Inhibition belonging to this molecule: CO[C@H](C)[C@H](NC(=O)[C@H](CC(C)C)[C@H](CCC(F)(F)F)N(O)C=O)C(=O)Nc1nccs1
Result: 0

Problem: Supply reported Inhibition belonging to this molecule: CN1CCN(CCCN(Cc2ccc(-c3cccc(CNCc4ccc5c(c4)OCO5)c3)cc2)C(=O)Nc2ccccc2)CC1.O=C(O)C(F)(F)F
Result: 51

Problem: Supply reported Inhibition belonging to this molecule: CC(C)NCc1cccc(-c2cccc(-c3nc4cc(F)ccc4[nH]3)c2)c1.O=C(O)C(F)(F)F
Result: 20

Problem: Supply reported Inhibition belonging to this molecule: O=C(Nc1cccc(C(F)(F)F)c1)c1cccc2nc(C(F)(F)F)[nH]c12
Result: 81

Problem: Supply reported Inhibition belonging to this molecule: COc1ccccc1-n1ccnc1SCC(=O)Nc1cc(C(F)(F)F)ccc1Cl
Result: 0

Problem: Supply reported Inhibition belonging to this molecule: CCOC(=O)c1cc(C(=O)OC)c2ccccn12
Result: 44

Problem: Supply reported Inhibition belonging to this molecule: O=C(/C=C/c1cc([N+](=O)[O-])ccc1Cl)N1CCC(CCN2CCC(c3c[nH]c4ccccc34)CC2)CC1
Result: 25

Problem: Supply reported Inhibition belonging to this molecule: CC(C)CNCc1ccc(-c2ccc(CN(CCCN3CCN(C)CC3)C(=O)CCC3CCCC3)cc2)cc1.O=C(O)C(F)(F)F
Result: 50

Problem: Supply reported Inhibition belonging to this molecule: CC(=O)Nc1ccc(C(=O)Nc2ccc(-c3csc(-c4nc5ccccc5[nH]4)c3)cc2)cn1
Result: 11

Problem: Supply reported Inhibition belonging to this molecule: COc1ccc2ccccc2c1C=NN=c1cc(C)[nH]c2cc(C(F)(F)F)ccc12
Result: 1
